system: L. infantum JPCM5 MCAN/ES/98/LLM-87 axenic amastigotes; assay: L. infantum axenic amastigote assay (Alamar blue); format: cell-based, Leishmania infantum; details: Leishmania infantum; 72 h, Alamar blue
ENDPOINT: EC50 (µM)

>  <MOLECULE>
Cc1ccccc1N1CCN(C(=O)c2cc3c4ccccc4n(C)c3c(-c3ccccc3)n2)CC1 [7c]

>  <UNIT TAG>
µM

>  <EC50>
2.6

$$$$

[I] Cn1c2ccccc2c2cc(C(=O)N3CCN(c4ccc(F)cc4)CC3)nc(-c3ccccc3)c21 [7k]
[II] Cn1c2ccccc2c2cc(C(=O)N3CCN(c4ccccc4)CC3)nc(-c3ccccc3)c21 [7a]
[III] COc1ccc(N2CCN(C(=O)c3cc4c5ccccc5n(C)c4c(-c4ccccc4)n3)CC2)cc1 [7d]
[IV] N=C(N)c1ccc(OCCCCCOc2ccc(C(=N)N)cc2)cc1 [Pentamidine, reference compound]
Request: Please list these in order of increasing EC50. Thank you! Reply: labels, ordered per the request.
Result: III, IV, II, I
(III: 1.4 µM, IV: 2.7 µM, II: 4.5 µM, I: 15 µM)

---

test system: L. infantum JPCM5 MCAN/ES/98/LLM-87 promastigotes; assay: L. infantum promastigote assay (Alamar blue); format: cell-based, Leishmania infantum; settings: Leishmania infantum, 72 h, Alamar blue
pEC50: −log10 of the molar value.
ENDPOINT: pEC50

>  <COMPOUND STRUCTURE>
Cn1c2ccccc2c2cc(C(=O)N3CCN(c4ccc(Cl)cc4)CC3)nc(-c3ccccc3)c21

>  <ENDPOINT>
pEC50

>  <ENDPOINT RESULT>
5.83

$$$$

[I] Cn1c2ccccc2c2cc(C(=O)N3CCN(c4ccc([N+](=O)[O-])cc4)CC3)nc(-c3ccccc3)c21
[II] COc1cccc(N2CCN(C(=O)c3cc4c5ccccc5n(C)c4c(-c4ccccc4)n3)CC2)c1
[III] Cn1c2ccccc2c2cc(C(=O)N3CCN(c4ccccc4)CC3)nc(-c3ccccc3)c21
Request: Please list these in order of increasing pEC50. Thank you! Reply: labels, ordered per the request.
Result: II, I, III

---

system: L. donovani LdBOB intracellular amastigotes in PMA differentiated THP-1 cells; test: Intra macrophage L. donovani (amastigote) assay in THP-1 cells; type: cell-based, Leishmania donovani; conditions: Leishmania donovani, THP-1, 72 h, THP-1 macrophages, 72 h, microscopy readout
ENDPOINT: EC50 (µM)

[a] Cn1c2ccccc2c2cc(C(=O)N3CCN(Cc4ccccc4)CC3)nc(-c3ccccc3)c21 [7n]
[b] N=C(N)c1ccc(OCCCCCOc2ccc(C(=N)N)cc2)cc1 [Pentamidine, reference compound]
Request: Short answer wanted: higher EC50, a or b ? Return value: the label identifying the chosen record.
Result: b
(b: 23.7 µM, a: 5.6 µM)

---

tested on: L. donovani LdBOB axenic amastigotes; experiment: L. donovani axenic amastigote assay (Alamar blue); format: cell-based, Leishmania donovani; settings: HeLa CC50 / L. donovani axenic amastigote EC50
Below is a list of entries, each paired with its recorded S.I (CC50/IC50), L. donovani axenic amastigote value.
// return a plain number; no unit text

Below: 5 compounds and their reported S.I (CC50/IC50), L. donovani axenic amastigote.
>  <COMPOUND STRUCTURE>
Cn1c2ccccc2c2cc(C(=O)N3CCN(c4ccccn4)CC3)nc(-c3ccccc3)c21

>  <ENDPOINT RESULT>
22.2

$$$$
>  <COMPOUND STRUCTURE>
COc1ccccc1N1CCN(C(=O)c2cc3c4ccccc4n(C)c3c(-c3ccccc3)n2)CC1

>  <ENDPOINT RESULT>
78.1

$$$$
>  <COMPOUND STRUCTURE>
Cn1c2ccccc2c2cc(C(=O)N3CCN(c4ccncc4)CC3)nc(-c3ccccc3)c21

>  <ENDPOINT RESULT>
2.1

$$$$
>  <COMPOUND STRUCTURE>
Cn1c2ccccc2c2cc(C(=O)N3CCN(Cc4ccccc4)CC3)nc(-c3ccccc3)c21

>  <ENDPOINT RESULT>
142.9

$$$$
>  <COMPOUND STRUCTURE>
Cn1c2ccccc2c2cc(C(=O)N3CCN(c4ccccc4)CC3)nc(-c3ccccc3)c21

>  <ENDPOINT RESULT>
50.0

$$$$

Request: Look up and state reported S.I (CC50/IC50), L. donovani axenic amastigote for Cn1c2ccccc2c2cc(C(=O)N3CCN(c4ccc(F)cc4)CC3)nc(-c3ccccc3)c21
Result: 53.8

Request: Look up and state reported S.I (CC50/IC50), L. donovani axenic amastigote for Cc1ccccc1N1CCN(C(=O)c2cc3c4ccccc4n(C)c3c(-c3ccccc3)n2)CC1
Result: 94.3

Request: Look up and state reported S.I (CC50/IC50), L. donovani axenic amastigote for Cn1c2ccccc2c2cc(C(=O)N3CCN(c4ccccc4Cl)CC3)nc(-c3ccccc3)c21
Result: 25.8

Request: Look up and state reported S.I (CC50/IC50), L. donovani axenic amastigote for Cc1ccc(N2CCN(C(=O)c3cc4c5ccccc5n(C)c4c(-c4ccccc4)n3)CC2)cc1
Result: 86.2

Request: Look up and state reported S.I (CC50/IC50), L. donovani axenic amastigote for COc1ccc(N2CCN(C(=O)c3cc4c5ccccc5n(C)c4c(-c4ccccc4)n3)CC2)cc1
Result: 555.6

Request: Look up and state reported S.I (CC50/IC50), L. donovani axenic amastigote for Cn1c2ccccc2c2cc(C(=O)N3CCN(c4cccc(Cl)c4)CC3)nc(-c3ccccc3)c21
Result: 227.3

Request: Look up and state reported S.I (CC50/IC50), L. donovani axenic amastigote for Cn1c2ccccc2c2cc(C(=O)N3CCN(c4ccc([N+](=O)[O-])cc4)CC3)nc(-c3ccccc3)c21
Result: 66.7

Request: Look up and state reported S.I (CC50/IC50), L. donovani axenic amastigote for Cn1c2ccccc2c2cc(C(=O)N3CCN(c4ccc(Cl)cc4)CC3)nc(-c3ccccc3)c21
Result: 131.6

---

system: L. donovani promastigotes; experiment: L. donovani promastigote assay (Alamar blue); assay type: cell-based, Leishmania donovani; conditions: HeLa CC50 / L. donovani promastigote EC50
ENDPOINT: S.I (CC50/IC50), L. donovani promastigote

Below: 4 molecules and their reported S.I (CC50/IC50), L. donovani promastigote.
>  <COMPOUND STRUCTURE>
COc1cccc(N2CCN(C(=O)c3cc4c5ccccc5n(C)c4c(-c4ccccc4)n3)CC2)c1

>  <ENDPOINT RESULT>
>17.5

$$$$
>  <COMPOUND STRUCTURE>
Cn1c2ccccc2c2cc(C(=O)N3CCN(c4cccc(Cl)c4Cl)CC3)nc(-c3ccccc3)c21

>  <ENDPOINT RESULT>
>4.3

$$$$
>  <COMPOUND STRUCTURE>
COc1ccc(N2CCN(C(=O)c3cc4c5ccccc5n(C)c4c(-c4ccccc4)n3)CC2)cc1

>  <ENDPOINT RESULT>
>549.5

$$$$
>  <COMPOUND STRUCTURE>
Cc1ccc(N2CCN(C(=O)c3cc4c5ccccc5n(C)c4c(-c4ccccc4)n3)CC2)cc1

>  <ENDPOINT RESULT>
>35.2

$$$$

Request: Look up and state reported S.I (CC50/IC50), L. donovani promastigote for Cn1c2ccccc2c2cc(C(=O)N3CCN(c4ccccc4)CC3)nc(-c3ccccc3)c21
Result: >42.0

Request: Look up and state reported S.I (CC50/IC50), L. donovani promastigote for Cn1c2ccccc2c2cc(C(=O)N3CCN(c4ccc([N+](=O)[O-])cc4)CC3)nc(-c3ccccc3)c21
Result: >38.2

Request: Look up and state reported S.I (CC50/IC50), L. donovani promastigote for Cn1c2ccccc2c2cc(C(=O)N3CCN(c4ccccc4F)CC3)nc(-c3ccccc3)c21
Result: >5.8

---

Below is a list of entries, each paired with its recorded melting point value.

Below: 7 molecules and their reported melting point.
>  <COMPOUND STRUCTURE>
COc1cccc(N2CCN(C(=O)c3cc4c5ccccc5n(C)c4c(-c4ccccc4)n3)CC2)c1

>  <melting point>
196 to 198 °C

$$$$
>  <COMPOUND STRUCTURE>
Cn1c2ccccc2c2cc(C(=O)N3CCN(c4ccccc4)CC3)nc(-c3ccccc3)c21

>  <melting point>
232 to 234 °C

$$$$
>  <COMPOUND STRUCTURE>
Cn1c2ccccc2c2cc(C(=O)N3CCN(c4ccc([N+](=O)[O-])cc4)CC3)nc(-c3ccccc3)c21

>  <melting point>
200 to 202 °C

$$$$
>  <COMPOUND STRUCTURE>
Cn1c2ccccc2c2cc(C(=O)N3CCN(c4ccc(F)cc4)CC3)nc(-c3ccccc3)c21

>  <melting point>
188 to 190 °C

$$$$
>  <COMPOUND STRUCTURE>
Cn1c2ccccc2c2cc(C(=O)N3CCN(c4ccccc4Cl)CC3)nc(-c3ccccc3)c21

>  <melting point>
152 to 154 °C

$$$$
>  <COMPOUND STRUCTURE>
Cn1c2ccccc2c2cc(C(=O)N3CCN(c4cccc(Cl)c4)CC3)nc(-c3ccccc3)c21

>  <melting point>
130 to 132 °C

$$$$
>  <COMPOUND STRUCTURE>
Cn1c2ccccc2c2cc(C(=O)N3CCN(c4ccncc4)CC3)nc(-c3ccccc3)c21

>  <melting point>
198 to 200 °C

$$$$

Request: Look up and state reported melting point for Cn1c2ccccc2c2cc(C(=O)N3CCN(Cc4ccccc4)CC3)nc(-c3ccccc3)c21
Result: 158 to 160 °C
